Target: Bovine LOX (Bos taurus (Bovine), UniProt P33072)
Sequence (P33072 170-418): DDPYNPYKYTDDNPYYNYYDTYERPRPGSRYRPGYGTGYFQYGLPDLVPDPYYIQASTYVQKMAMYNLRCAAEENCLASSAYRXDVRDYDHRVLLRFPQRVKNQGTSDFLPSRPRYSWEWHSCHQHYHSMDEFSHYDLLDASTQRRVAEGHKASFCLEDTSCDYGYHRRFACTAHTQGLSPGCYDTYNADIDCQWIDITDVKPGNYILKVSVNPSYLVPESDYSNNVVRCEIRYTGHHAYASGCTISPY
Structures can show the parent of a compound that is named as a salt.
value_type: IC50

Below, each entry is followed by its recorded IC50 result.
[ask] Fill blank: measured IC50 of the molecule CCS(=O)(=O)c1ccc(Cc2c(C(C)C)n(C/C(F)=C/CN)c3cccnc23)cn1 [Compound 43, dihydrochloride] is ____.
[reply] > 300 nM

[ask] Now consider CN(C)C(=O)c1c(Cc2ccc(S(=O)(=O)N(C)C)cc2)c2ccccc2n1C/C(F)=C/CN [Compound 5, hydrochloride] and answer again.
[reply] > 300 nM

[ask] Now consider CC(O)c1c(Cc2ccc(S(=O)(=O)N(C)C)cc2)c2ncccc2n1C/C(F)=C/CN (centres unmarked) [Compound 29, dihydrochloride] and answer again.
[reply] > 300 nM

[ask] Now consider Cc1c(Cc2ccc(S(=O)(=O)N(C)C)cc2)c2cc(S(=O)(=O)N(C)C)ccc2n1C/C(F)=C/CN [Compound 6, hydrochloride] and answer again.
[reply] > 300 nM

[ask] Now consider Cc1c(Cc2ccc(S(=O)(=O)N(C)C)cc2)c2nc(C(C)(C)O)ccc2n1C/C(F)=C/CN [Compound 28, dihydrochloride] and answer again.
[reply] > 300 nM

[ask] Now consider Cc1c(Cc2cccc(S(=O)(=O)N(C)C)c2)c2ncccc2n1C/C(F)=C/CN [Compound 18, dihydrochloride] and answer again.
[reply] > 300 nM

[ask] Now consider Cc1c(Oc2ccc(S(=O)(=O)N(C)C)cc2)c2ccccc2n1C/C(F)=C/CN [Compound 21, hydrochloride] and answer again.
[reply] > 300 nM

[ask] Now consider Cc1cc2c(cn1)c(Cc1ccc(S(C)(=O)=O)cc1)c(C)n2C/C(F)=C/CN [Compound 36, dihydrochloride] and answer again.
[reply] > 300 nM

***
[ask] Fill blank: measured IC50 of the molecule Cc1cc2c(nc1O)c(Cc1ccc(S(=O)(=O)N(C)C)cc1)c(C)n2C/C(F)=C/CN [Compound 19, dihydrochloride] is ____.
[reply] > 300 nM

[ask] Now consider Cc1c(Cc2ccc(S(C)(=O)=O)cc2Cl)c2ncccc2n1C/C(F)=C/CN [Compound 20, dihydrochloride] and answer again.
[reply] > 300 nM

[ask] Now consider Cc1c(Cc2ccc(S(=O)(=O)N(C)C)cc2)c2ccccc2n1C/C(F)=C/CN [Compound 26, hydrochloride] and answer again.
[reply] > 300 nM

[ask] Now consider CC(C)c1c(Cc2ccc(S(=O)(=O)C(C)C)nc2)c2ncccc2n1C/C(F)=C/CN [Compound 41, hydrochloride] and answer again.
[reply] > 300 nM

[ask] Now consider Cc1c(Cc2cccc(S(=O)(=O)N(C)C)c2)c2cc(S(=O)(=O)N(C)C)ccc2n1C/C(F)=C/CN [Compound 7, hydrochloride] and answer again.
[reply] > 300 nM

[ask] Now consider Cc1c(Cc2ccc(S(=O)(=O)N(C)C)cc2)c2nc(F)ccc2n1C/C(F)=C/CN [Compound 23, dihydrochloride] and answer again.
[reply] > 300 nM

* * *

Molecular target: Human recombinant SSAO/VAP-1 (Homo sapiens (Human))
Sequence (Q16853 34-763): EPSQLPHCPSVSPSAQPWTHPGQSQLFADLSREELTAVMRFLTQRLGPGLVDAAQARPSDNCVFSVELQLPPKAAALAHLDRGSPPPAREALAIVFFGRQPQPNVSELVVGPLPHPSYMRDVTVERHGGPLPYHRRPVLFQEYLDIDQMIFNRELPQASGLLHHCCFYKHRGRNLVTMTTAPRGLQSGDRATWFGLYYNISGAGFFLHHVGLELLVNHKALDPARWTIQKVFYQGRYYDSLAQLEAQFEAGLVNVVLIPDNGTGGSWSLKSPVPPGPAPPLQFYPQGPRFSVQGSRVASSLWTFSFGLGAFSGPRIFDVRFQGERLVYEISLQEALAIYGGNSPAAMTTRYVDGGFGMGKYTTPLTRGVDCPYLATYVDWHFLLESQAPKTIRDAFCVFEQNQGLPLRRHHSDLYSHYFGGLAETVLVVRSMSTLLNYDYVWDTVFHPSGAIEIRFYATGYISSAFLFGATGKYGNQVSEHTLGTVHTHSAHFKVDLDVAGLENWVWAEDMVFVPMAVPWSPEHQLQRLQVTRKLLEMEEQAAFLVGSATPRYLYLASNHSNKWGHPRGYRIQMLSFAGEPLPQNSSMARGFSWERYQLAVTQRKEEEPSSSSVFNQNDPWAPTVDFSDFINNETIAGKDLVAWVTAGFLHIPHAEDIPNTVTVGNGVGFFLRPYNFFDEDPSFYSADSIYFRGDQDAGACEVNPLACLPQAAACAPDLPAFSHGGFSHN
Test: Human recombinant SSAO/VAP-1 amine oxidase inhibition
Settings: 30 min preincubation at 37° C., 600 μM benzylamine
Counter-ions that a name gives are not always drawn.
value_type: IC50

Below, each entry is followed by its recorded IC50 result.
[ask] So what IC50 did Cc1c(Cc2ccc(S(=O)(=O)N(C)C)cc2)c2cc(C(=O)N(C)C)ccc2n1C/C(F)=C/CN [Compound 3, hydrochloride] get with Human recombinant SSAO/VAP-1 (Homo sapiens (Human))?
[reply] > 3 µM

[ask] Now consider Cc1cnc2c(Cc3ccc(S(=O)(=O)N(C)C)cc3)c(C)n(C/C(F)=C/CN)c2c1 [Compound 11, dihydrochloride] and answer again.
[reply] > 3 µM

Moving on to the next molecule.
[ask] So what IC50 did Cc1c(Cc2ccc(S(C)(=O)=O)cc2)c2ncccc2n1C/C(F)=C/CN [Compound 10, dihydrochloride] get with Human recombinant SSAO/VAP-1 (Homo sapiens (Human))?
[reply] > 3 µM
